measurementTarget: UniProtKB P00915
Sequence (P00915 whole entry): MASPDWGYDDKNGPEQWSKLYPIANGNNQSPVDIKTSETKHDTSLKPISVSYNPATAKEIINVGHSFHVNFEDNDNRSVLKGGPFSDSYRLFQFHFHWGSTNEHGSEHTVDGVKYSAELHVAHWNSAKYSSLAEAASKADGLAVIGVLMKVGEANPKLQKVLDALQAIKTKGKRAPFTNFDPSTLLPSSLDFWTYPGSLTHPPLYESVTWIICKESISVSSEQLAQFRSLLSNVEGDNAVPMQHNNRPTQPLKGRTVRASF
measureName: Ki (µM)

INSERT INTO assay_data (compound, measurename, endpointresult) VALUES
  ('CC(=O)N1N=C(c2ccc(Cl)cc2Cl)CC1c1ccc(OS(N)(=O)=O)cc1 (configuration not stated)', 'Ki', 3.52),
  ('CC(=O)N1N=C(c2ccc([N+](=O)[O-])cc2)CC1c1cccc(OS(N)(=O)=O)c1 (configuration not stated)', 'Ki', 2.55),
  ('CC(=O)N1N=C(c2ccc(OS(N)(=O)=O)cc2)CC1c1cccc(Cl)c1 (configuration not stated)', 'Ki', 2.31),
  ('CC(=O)N1N=C(c2ccc(F)cc2)CC1c1cccc(OS(N)(=O)=O)c1 (configuration not stated)', 'Ki', 5.23),
  ('CC(=O)N1N=C(c2ccc(OS(N)(=O)=O)cc2)CC1c1ccccc1Cl (configuration not stated)', 'Ki', 8.25),
  ('CC(=O)N1N=C(c2ccc(OS(N)(=O)=O)cc2)CC1c1ccc(C(F)(F)F)cc1 (configuration not stated)', 'Ki', 2.74),
  ('CC(=O)N1N=C(c2ccccc2)CC1c1ccc(OS(N)(=O)=O)cc1 (configuration not stated)', 'Ki', 0.645),
  ('CC(=O)N1N=C(c2ccc(OS(N)(=O)=O)cc2)CC1c1ccc(C)cc1 (configuration not stated)', 'Ki', 0.817),
  ('CC(=O)N1N=C(c2cccc(OS(N)(=O)=O)c2)CC1c1ccc([N+](=O)[O-])cc1 (configuration not stated)', 'Ki', 1.46),
  ('CC(=O)N1N=C(c2ccc(Cl)cc2Cl)CC1c1cccc(OS(N)(=O)=O)c1 (configuration not stated)', 'Ki', 6.94),
  ('CC(=O)N1N=C(c2ccc(Cl)c(Cl)c2)CC1c1cccc(OS(N)(=O)=O)c1 (configuration not stated)', 'Ki', 8.17),
  ('CC(=O)N1N=C(c2ccc(OS(N)(=O)=O)cc2)CC1c1c(Cl)cccc1Cl (configuration not stated)', 'Ki', 4.08);

----------
# Carbonic anhydrase 9 (Homo sapiens, UniProt Q16790): pKi values follow
pKi: −log10 of the molar value.
measureName: pKi

INSERT INTO assay_data (compound, measurename, endpointresult) VALUES
  ('CC(=O)N1N=C(c2ccc(OS(N)(=O)=O)cc2)CC1c1cccc(Cl)c1 (centres undefined)', 'pKi', 9.14),
  ('CC(=O)N1N=C(c2ccc(OS(N)(=O)=O)cc2)CC1c1ccc([N+](=O)[O-])cc1 (centres undefined)', 'pKi', 7.13),
  ('CC(=O)N1N=C(c2cccc(OS(N)(=O)=O)c2)CC1c1ccc(Cl)cc1Cl (centres undefined)', 'pKi', 7.86),
  ('CC(=O)N1N=C(c2cccc(OS(N)(=O)=O)c2)CC1c1ccc(F)cc1 (centres undefined)', 'pKi', 8.08);

----------
# reported Ki; entries follow
measurementTarget: Carbonic anhydrase 9 (Homo sapiens, UniProt Q16790)
testSummary: Inhibition of human carbonic anhydrase 9 assessed as inhibitory constant incubated for 15 mins by phenol red dye based stopped flow assay
measureName: Ki (µM)

INSERT INTO assay_data (compound, endpointresult) VALUES
  ('CC(=O)N1N=C(c2ccc(C)cc2)CC1c1cccc(OS(N)(=O)=O)c1 (stereo not given)', 0.0089),
  ('COc1ccc(C2CC(c3cccc(OS(N)(=O)=O)c3)=NN2C(C)=O)cc1 (stereo not given)', 0.0087),
  ('CC(=O)N1N=C(c2ccc(Cl)cc2Cl)CC1c1cccc(OS(N)(=O)=O)c1 (stereo not given)', 0.0487),
  ('CC(=O)N1N=C(c2ccc(OS(N)(=O)=O)cc2)CC1c1ccc(C)cc1 (stereo not given)', 0.0071),
  ('CC(=O)N1N=C(c2cccc(OS(N)(=O)=O)c2)CC1c1ccccc1Cl (stereo not given)', 0.0436),
  ('CC(=O)N1N=C(c2cccc(OS(N)(=O)=O)c2)CC1c1ccccc1 (stereo not given)', 0.0299),
  ('CC(=O)N1N=C(c2ccc(Cl)cc2)CC1c1cccc(OS(N)(=O)=O)c1 (stereo not given)', 0.00081),
  ('CC(=O)N1N=C(c2ccc(C)cc2)CC1c1ccc(OS(N)(=O)=O)cc1 (stereo not given)', 0.0224),
  ('CC(=O)N1N=C(c2cccc(OS(N)(=O)=O)c2)CC1c1c(Cl)cccc1Cl (stereo not given)', 0.0636),
  ('CC(=O)N1N=C(c2ccc(OS(N)(=O)=O)cc2)CC1c1ccc(Cl)cc1Cl (stereo not given)', 0.0112);

Where do the numbers come from? From ChEMBL document CHEMBL4359908.
